# assaySystem: Recombinant mouse FAP (Mus musculus, UniProt P97321)
# Construct: purchased R&D systems 8647-SE
# Sequence (P97321 whole entry): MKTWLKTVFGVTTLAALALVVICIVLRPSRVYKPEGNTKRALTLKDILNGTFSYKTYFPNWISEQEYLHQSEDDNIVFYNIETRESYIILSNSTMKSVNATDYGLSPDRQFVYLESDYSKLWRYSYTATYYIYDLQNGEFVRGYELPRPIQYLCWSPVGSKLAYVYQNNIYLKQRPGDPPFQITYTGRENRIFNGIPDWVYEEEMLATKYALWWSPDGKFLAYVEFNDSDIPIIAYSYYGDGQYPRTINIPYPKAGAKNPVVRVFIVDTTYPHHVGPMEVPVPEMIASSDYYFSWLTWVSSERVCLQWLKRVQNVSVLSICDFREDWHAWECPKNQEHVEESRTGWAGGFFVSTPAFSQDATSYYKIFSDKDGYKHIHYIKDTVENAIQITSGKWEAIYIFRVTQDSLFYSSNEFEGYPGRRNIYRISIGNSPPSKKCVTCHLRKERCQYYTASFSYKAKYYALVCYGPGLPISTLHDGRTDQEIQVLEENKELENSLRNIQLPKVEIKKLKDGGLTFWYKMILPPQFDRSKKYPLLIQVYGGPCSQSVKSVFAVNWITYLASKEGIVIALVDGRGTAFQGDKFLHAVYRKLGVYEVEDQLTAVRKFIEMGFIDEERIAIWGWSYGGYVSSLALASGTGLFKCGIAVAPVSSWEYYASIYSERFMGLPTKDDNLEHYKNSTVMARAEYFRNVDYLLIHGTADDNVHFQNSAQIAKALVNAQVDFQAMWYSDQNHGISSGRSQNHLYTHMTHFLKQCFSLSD
# experimentDescription: FRET-based FAP protease activity assay (mouse)
# Type: biochemical
# conditionContext: FRET-peptide substrate, 37°C, read-out: pIC50 (mouseFAP) (converted)
readoutName: IC50 (nM)
Respond with the bare value in nM.

Some solved entries appear below for comparison.
* CS(=O)(=O)c1cc(F)c(-c2ccc3nccc(C(=O)NCC(=O)N4CCC[C@H]4C#N)c3c2)c(F)c1 | 1
* CS(=O)(=O)c1cccc(-c2ccc3nccc(C(=O)NCC(=O)N4CC(F)(F)C[C@H]4C#N)c3c2)c1 [drawing 288] | 1
* Cc1cc(S(C)(=O)=O)ccc1-c1ccc2nccc(C(=O)NCC(=O)N3CCC[C@H]3C#N)c2c1 | 1.26
* CS(=O)(=O)c1ccc(-c2ccc3nccc(C(=O)NCC(=O)N4C[C@H](F)C[C@H]4C#N)c3c2)cc1 | 10
* CS(=O)(=O)c1ccc(-c2ccc3nccc(C(=O)NCC(=O)N4C[C@@H](F)C[C@H]4C#N)c3c2)cc1 | 0.631

Q. Quote IC50 reported for `CS(=O)(=O)c1ccc(-c2ccc3nccc(C(=O)NCC(=O)N4CC(F)(F)C[C@H]4C#N)c3c2)cc1` please.
A. 0.794
